Here we gather Ki data for Carbonic anhydrase 5A, mitochondrial (Homo sapiens) reported by several publications.
Decide using Ki alone. Strictly below 7 µM: satisfied. Equal to or above 7 µM: not satisfied.

Dear reviewer, please state whether `COc1cc(C(=O)O)cc(OC)c1O` has Ki strictly beneath 7 µM.
satisfied

Dear reviewer, please state whether `Cc1cn(-c2cc(NC(=O)c3ccc(C)c(Nc4nccc(-c5cccnc5)n4)c3)cc(C(F)(F)F)c2)cn1` has Ki strictly beneath 7 µM.
satisfied

Dear reviewer, please state whether `NCCNCCNCCN` has Ki strictly beneath 7 µM.
not satisfied

Dear reviewer, please state whether `Nc1ccc(S(=O)(=O)Nc2nnc(S(N)(=O)=O)s2)cc1` has Ki strictly beneath 7 µM.
satisfied

Dear reviewer, please state whether `C[C@]12CC[C@@H]3c4ccc(C(F)(F)S(N)(=O)=O)cc4CC[C@H]3[C@@H]1CCC2=O` has Ki strictly beneath 7 µM.
satisfied

Dear reviewer, please state whether `CCOc1ccc2ccc(=O)oc2c1` has Ki strictly beneath 7 µM.
not satisfied
